Record: compiled Ki on Metabotropic glutamate receptor 5 (Homo sapiens, UniProt P41594) from multiple reports.
assay_readout: Ki (nM)

In the examples that follow, each entry is paired with its recorded Ki.
Ki lookup needed for `Cc1nc(C#Cc2ccnc(Cl)c2)cn1-c1ccn(C)c(=O)c1` , thanks.
180

Let us now turn to `N#Cc1cc(CO)nc(C(=O)Nc2ccc(F)cn2)c1`
111

Let us now turn to `Cc1nc(C#Cc2cccc(C#N)c2)cn1-c1cncc(F)c1`
39

Let us now turn to `Cc1cc(-n2cc(C#Cc3ccnc(Cl)c3)nc2C)ccc1F`
25

Let us now turn to `Cc1cccc(C(=O)NC23CC4CC(C2)CC(NC(=O)c2cccc(C)n2)(C4)C3)n1`
6.7

Let us now turn to `Clc1cccc(Nc2nccc3cccnc23)c1`
89

Let us now turn to `Fc1cncc(-c2cnc(Nc3ccnc(Cl)c3)c3ncccc23)c1`
66

Let us now turn to `COc1cccc(-n2cc(C#Cc3ccnc(C)c3)nc2C)n1`
18

Let us now turn to `CN1N(c2ccc(C#Cc3ccnc(Cl)c3)cn2)C(=O)CC1(C)C`
103

Let us now turn to `Cc1nc(C#Cc2cccc(Cl)c2)c(C)n1-c1cc[nH]c(=O)c1`
148

(1) CCn1ncc(-n2cc(C#Cc3cccc(C)c3)nc2C)cc1=O
(2) COCCn1ncc(-n2c(C)nc(C#Cc3ccnc(Cl)c3)c2C)cc1=O
Please compare: 1 and 2 . Report which one has the smaller Ki value. Your answer should be the label of the entry you select.
1

(a) Cc1cc(C#Cc2nc(C)n(-c3ccc(F)cc3)c2C=O)ccn1
(b) Cc1nc(C#Cc2cccc(Cl)c2)c(C)n1-c1cnn(C)c(=O)c1
(c) Cc1ccc(-n2c(C)nc(C#Cc3ccnc(Cl)c3)c2C)cc1
Hello, I need these entries ordered by Ki, highest reading first. Thanks! Give the labels in the order specified.
a, b, c

(1) CCOC(=O)N1CC/C(=C\C#Cc2cccc(C(F)(F)F)c2)C(C)(C)C1
(2) Cc1nc(C#Cc2ccnc(Cl)c2)c(C(F)F)n1-c1ccc(F)cc1
Please compare: 1 and 2 . Report which one has the smaller Ki value. Your answer should be the label of the entry you select.
1
